Consider the following molecules; for each one, report its half-life.
test: Half life in rat at 3 mg/kg, po; assay type: ADME, organism-based; parameters: dose 3 mg/kg, route oral; details: in vivo
Write the answer as a number in h, unit excluded.

Problem: Value lookup for half-life; key = "COC(=O)N[C@H](C(=O)N1CCC[C@H]1C(=O)Nc1ccc([C@H]2CC[C@H](c3ccc(NC(=O)[C@@H]4CCCN4C(=O)[C@@H](NC(=O)OC)C(C)C)cc3)N2c2ccc(C(C)(C)C)cc2)cc1)C(C)C"
Solution: 8.6

Problem: Would you mind doing "COC(=O)N[C@H](C(=O)N1CCC[C@H]1C(=O)Nc1ccc([C@H]2CC[C@H](c3ccc(NC(=O)[C@@H]4CCCN4C(=O)[C@@H](NC(=O)OC)C(C)(C)C)cc3)N2c2ccc(F)cc2)cc1)C(C)(C)C" as well?
Solution: 7

Problem: Record: "COC(=O)N[C@H](C(=O)N1CCC[C@H]1C(=O)Nc1ccc([C@@H]2CC[C@@H](c3ccc(NC(=O)[C@@H]4CCCN4C(=O)[C@@H](NC(=O)OC)C(C)C)cc3)N2c2ccc(C(C)(C)C)cc2)cc1)C(C)C"
Solution: 15.9

Problem: Repeat with "COC(=O)N[C@H](C(=O)N1CCC[C@H]1C(=O)Nc1ccc([C@H]2CC[C@H](c3ccc(NC(=O)[C@@H]4CCCN4C(=O)[C@@H](NC(=O)OC)[C@@H](C)OC)cc3)N2c2ccc(F)cc2)cc1)[C@@H](C)OC"
Solution: 0.9

Problem: Try this molecule too: "COC(=O)N[C@H](C(=O)N1CCC[C@H]1C(=O)Nc1ccc([C@@H]2CC[C@@H](c3ccc(NC(=O)[C@@H]4CCCN4C(=O)[C@@H](NC(=O)OC)C(C)C)cc3)N2c2ccc(F)cc2)cc1)C(C)C"
Solution: 3

Problem: "COC(=O)N[C@H](C(=O)N1CCC[C@H]1C(=O)Nc1ccc([C@@H]2CC[C@@H](c3ccc(NC(=O)[C@@H]4CCCN4C(=O)[C@@H](NC(=O)OC)C(C)(C)C)cc3)N2c2ccc(C(C)(C)C)cc2)cc1)C(C)(C)C" ?
Solution: 11

Problem: Further, for "COC(=O)N[C@H](C(=O)N1CCC[C@H]1C(=O)Nc1ccc([C@@H]2CC[C@@H](c3ccc(NC(=O)[C@@H]4CCCN4C(=O)[C@@H](NC(=O)OC)C(C)C)cc3)N2c2ccc(C(F)(F)F)cc2)cc1)C(C)C" ?
Solution: 12.1

Problem: Same lookup for "COC(=O)N[C@H](C(=O)N1CCC[C@H]1C(=O)Nc1ccc([C@H]2CC[C@H](c3ccc(NC(=O)[C@@H]4CCCN4C(=O)[C@@H](NC(=O)OC)C(C)(C)C)cc3)N2c2ccc(C(C)(C)C)cc2)cc1)C(C)(C)C" , please.
Solution: 12.4
